- Tested on: Methicillin sensitive Staphylococcus aureus ATCC 29213
- experiment notes: CIM antibacterial activity screening (broth microdilution)
- Assay type: cell-based
- condition description: ATCC29213; Methicillin sensitive Staphylococcus aureus ATCC 29213; read-out: CIM
recorded endpoint: MIC (µg/mL)

Worked examples, 4 molecules total:
smiles repr | MIC, µg/mL
CCc1nc2c(c3c1C(=O)C(Sc1cccc(C)c1)=CC3=O)c(=O)n(C)c(=O)n2C | 4
CCc1nc2c(c3c1C(=O)C(Sc1cccc(F)c1)=CC3=O)c(=O)n(C)c(=O)n2C | 4
CCc1nc2c(c3c1C(=O)C(Sc1ccccc1C)=CC3=O)c(=O)n(C)c(=O)n2C | 32
CCc1nc2c(c3c1C(=O)C(Sc1ccc(OC)cc1)=CC3=O)c(=O)n(C)c(=O)n2C | 16

A. CCc1nc2c(c3c1C(=O)C(Sc1cccc(Cl)c1)=CC3=O)c(=O)n(C)c(=O)n2C
B. CCc1nc2c(c3c1C(=O)C(Sc1ccc(Br)cc1)=CC3=O)c(=O)n(C)c(=O)n2C
Input: Consider A and B . Which of these has its MIC at a higher number? Reply briefly: the label of your chosen item.
Output: A

====

- System: Methicillin sensitive Staphylococcus aureus ATCC 29213
- experiment notes: CIM antibacterial activity screening (broth microdilution)
- Assay type: cell-based
- condition description: ATCC29213; Methicillin sensitive Staphylococcus aureus ATCC 29213; read-out: CIM
- Protocol: These compounds were tested for their in vitro activity (Screening Antibacterial Activity CIM (μg/mL)) and the results are shown in Table II. […] All trials were conducted three times, and results were considered valid if the internal controls of each plate (growth and sterility controls) were adequate. MIC antibiotic control (ciprofloxacin, gentamicin and vancomycin) was assessed and contrasted with the permitted quality control ranges given by CLSI. […]
recorded endpoint: MIC (µg/mL)

molecule | recorded endpoint | unit text | test result
CCc1nc2c(c3c1C(=O)C(Sc1ccc(F)cc1)=CC3=O)c(=O)n(C)c(=O)n2C [Molecule 15] | MIC | µg/mL | 8
CCc1nc2c(c3c1C(=O)C(Sc1ccccc1OC)=CC3=O)c(=O)n(C)c(=O)n2C [Molecule 4] | MIC | µg/mL | 4

P. CCc1nc2c(c3c1C(=O)C(Sc1cccc(OC)c1)=CC3=O)c(=O)n(C)c(=O)n2C [Molecule 9]
Q. CCc1nc2c(c3c1C(=O)C(Sc1ccccc1Br)=CC3=O)c(=O)n(C)c(=O)n2C [Molecule 7]
R. CCc1nc2c(c3c1C(=O)C(Sc1cccc(Br)c1)=CC3=O)c(=O)n(C)c(=O)n2C [Molecule 12]
Input: Hi! Can you put these in order of MIC, lowest number first? Use the labels to give the ranking in the order requested.
Output: Q, P, R
(Q: 4 µg/mL, P: 8 µg/mL, R: 32 µg/mL)

====

- System: Methicillin resistant Staphylococcus aureus ATCC 43300
- experiment notes: CIM antibacterial activity screening (broth microdilution)
- Assay type: cell-based
- condition description: ATCC43300; Methicillin resistant Staphylococcus aureus ATCC 43300; read-out: CIM
recorded endpoint: MIC (µg/mL)

Worked examples, 3 molecules total:
smiles repr | MIC [µg/mL]
CCc1nc2c(c3c1C(=O)C(Sc1cccc(Cl)c1)=CC3=O)c(=O)n(C)c(=O)n2C | 2
CCc1nc2c(c3c1C(=O)C(Sc1ccc(F)cc1)=CC3=O)c(=O)n(C)c(=O)n2C | 8
CCc1nc2c(c3c1C(=O)C(Sc1ccc(OC)cc1)=CC3=O)c(=O)n(C)c(=O)n2C | 16

A. CCc1nc2c(c3c1C(=O)C(Sc1cccc(Br)c1)=CC3=O)c(=O)n(C)c(=O)n2C
B. CCc1nc2c(c3c1C(=O)C(Sc1ccccc1C)=CC3=O)c(=O)n(C)c(=O)n2C
Input: Which of these two has the smaller recorded MIC: A or B ? Reply briefly: the label of your chosen item.
Output: A
